For each entry below, report its TF binding intensity value.
test-system: ETS1 (UniProt P14921)
Sequence: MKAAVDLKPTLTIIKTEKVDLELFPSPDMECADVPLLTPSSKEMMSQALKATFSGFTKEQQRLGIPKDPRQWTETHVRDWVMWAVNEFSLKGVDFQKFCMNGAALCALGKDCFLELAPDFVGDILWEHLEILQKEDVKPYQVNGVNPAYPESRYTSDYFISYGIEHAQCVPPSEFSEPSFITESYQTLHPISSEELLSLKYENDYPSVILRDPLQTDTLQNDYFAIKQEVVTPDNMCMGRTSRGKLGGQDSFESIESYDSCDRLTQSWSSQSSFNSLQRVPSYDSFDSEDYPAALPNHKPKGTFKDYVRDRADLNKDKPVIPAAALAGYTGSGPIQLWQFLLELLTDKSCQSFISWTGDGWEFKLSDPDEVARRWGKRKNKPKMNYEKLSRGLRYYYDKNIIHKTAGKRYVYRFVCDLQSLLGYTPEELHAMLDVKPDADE
run-description: TF binding intensity (PBM fluorescence), negative control probe (arbitrary fluorescence units); higher = stronger binding
Give bare numbers.

Reference set, count: 2
residues: GTCCCGGCTCGACTCAGTCCTCCAGCCGCCCGGGGA (protein concentration 10 nM)
test-system: ETS1 (UniProt P14921)
observed-property: TF binding intensity
numeric-value: 120

residues: TTGAAATGCATTCTCTGTGGGCATATGAAGTAGATT (protein concentration 1 nM)
test-system: ETS1 (UniProt P14921)
observed-property: TF binding intensity
numeric-value: 410

Answer for every listed entry: what is its TF binding intensity? The entries follow.
1. ACTGGCTAAGGTCTCTCCTGACCTGATTCCATTCTT (protein concentration 10 nM)
2. AAAGGCATGTAATGAACACTAAAACCCAAGAACCTG (protein concentration 10 nM)
3. GAGCCCTTCTGGCCTCCCTGTATAAGTCCAGACTGA (protein concentration 10 nM)
4. GGCTCCTATATTAAAATTGGTATTAGTAGACAATGT (protein concentration 10 nM)

A)
[97.3, 114, 96.9, 131]

Answer for every listed entry: what is its TF binding intensity? The entries follow.
1. TTTCTTCACACCACAAGCAGAGAGCAGCGAGAGAGA (protein concentration 10 nM)
2. GACCACAGGGACCCATGCCAGTCAGATAAAAATAAC (protein concentration 10 nM)
3. CTTGGTGTGTCTGAAGAAAGATCAGAAGGCTGGCAT (protein concentration 10 nM)
4. TGAATGAGTCTTTTTTTGGCCATCTCTTTATGATTA (protein concentration 10 nM)
5. GAAGCCAGTGAGCCAGGAGTGCTGATTGGTTAGGGA (protein concentration 10 nM)
6. ATTCCAATCCTATGTGCTTTAAAGCTTCTAGACATT (protein concentration 10 nM)
7. AATAAAGGTGAGGCAGTCCAGAGTATTTCAAAACGG (protein concentration 10 nM)

A)
[136, 141, 123, 132, 107, 119, 116]

====

For each entry below, report its ETS1 binding intensity value.
test-system: ETS1 (UniProt P14921)
Sequence: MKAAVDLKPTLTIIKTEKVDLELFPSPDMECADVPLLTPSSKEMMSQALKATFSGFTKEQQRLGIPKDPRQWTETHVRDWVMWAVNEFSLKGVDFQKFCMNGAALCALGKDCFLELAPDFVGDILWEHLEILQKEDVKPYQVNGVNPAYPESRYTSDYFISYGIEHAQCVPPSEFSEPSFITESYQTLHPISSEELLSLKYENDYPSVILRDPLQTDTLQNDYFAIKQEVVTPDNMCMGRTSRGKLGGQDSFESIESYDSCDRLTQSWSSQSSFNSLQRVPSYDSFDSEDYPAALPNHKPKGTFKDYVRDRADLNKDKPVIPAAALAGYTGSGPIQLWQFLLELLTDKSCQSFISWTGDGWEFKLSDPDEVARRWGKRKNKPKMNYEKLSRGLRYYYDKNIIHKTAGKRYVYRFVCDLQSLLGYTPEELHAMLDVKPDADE
run-description: ETS1 binding intensity (PBM fluorescence), ETS1 alone (arbitrary fluorescence units); higher = stronger binding
test-context: ETS1 concentration 1 nM; RUNX1 concentration 0 nM
Answers are plain numbers.

Reference set, count: 5
residues: CCCCTCACTTCCCTCAACCCTTCCCACAAACTGGGA
ETS1 binding intensity: 597
--
residues: CCCCCTGAACATCCGGGGCCTTTTAACCGCCCACGG
ETS1 binding intensity: 1290
--
residues: CGCCTCATTTCCTGTGCAACTGCGGTAAAAATAGGA
ETS1 binding intensity: 1860
--
residues: AGGGACTTCCGGTGACCAGAGCACTAGCGCCGCAAA
ETS1 binding intensity: 2160
--
residues: GGTCCAGGAAGACGTCAAGGGCTTGGTTTTGTAAAC
ETS1 binding intensity: 505

Answer for every listed entry: what is its ETS1 binding intensity? The entries follow.
1. CTGGGCTCGCCAGGCGGAAGTGGTTGGAGACTGCGT
2. AATTGAGACAGGAAATGTTGGTTTGTGGTCAGGCAC
3. GTCGGGAAGTAGGCGGGGTGACGTGTGGTTGACGAG
4. ATTTCCATTTCCGGACTCTTCTCCTGCCCGCAGGGC
5. CCACGTAAAGGCGGAAGCGGTTGAGTGGACGCCATC
6. CCAATGGGCAGGCGGAAACCGCGGGCTCGTGCTCCC
7. ATAAACAGGAAGCTGAGTATGTGACCACAGACATTC

A)
1: 6330; 2: 5020; 3: 426; 4: 2270; 5: 3090; 6: 1580; 7: 1670

Answer for every listed entry: what is its ETS1 binding intensity? The entries follow.
1. GATCCCCCTCCTCCATCCTGTGGCTTCGGGTTGCCG
2. CGCCTACTCTACTTCCGCGGTCGGCCGGGTAAGGAC

A)
1. 482
2. 603

Answer for every listed entry: what is its ETS1 binding intensity? The entries follow.
1. ATCTTCAGGAAGCGGTATCAACCTGAAAACCACCAC
2. ATGTTAACATCCTGCCATGAAAACCGCAAGAAGGGC

A)
1. 561
2. 680

src = the supplement of paper PMC10681739
